# log10 of IC50 values compiled below
# SUBJECT OF TEST: full length recombinant Pim-1 protein (Homo sapiens)
# Construct: by full length recombinant Pim-1, Pim-2, or Pim-3 protein; hexahistidine tag followed by a thrombin cleavage site (N); made in house; host or cells: Sf9 (baculovirus) or E. coli (pET28)
# Sequence (P11309 whole entry): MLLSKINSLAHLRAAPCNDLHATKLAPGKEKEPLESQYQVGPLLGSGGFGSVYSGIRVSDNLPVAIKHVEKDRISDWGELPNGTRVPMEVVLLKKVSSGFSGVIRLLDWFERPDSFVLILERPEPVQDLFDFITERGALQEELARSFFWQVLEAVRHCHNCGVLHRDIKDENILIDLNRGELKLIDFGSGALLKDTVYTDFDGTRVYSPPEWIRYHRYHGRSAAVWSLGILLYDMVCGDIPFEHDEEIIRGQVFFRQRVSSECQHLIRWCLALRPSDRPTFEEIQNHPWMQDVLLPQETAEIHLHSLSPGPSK
# ASSAY REMARKS: Pim-1 enzyme assay (HTRF, phosphorylation of biotinylated-BAD (S112) peptide)
# Assay type: biochemical
# DETAILS: read-out: Pim_1_IC50
Structures can show the parent of a compound that is named as a salt.
MEASURED QUANTITY: log10 of IC50 (log10 of the value in nM)

| MOLECULE | SUBJECT OF TEST | READING |
| --- | --- | --- |
| Oc1cc(N[C@@H]2CCCNC2)nc(-c2c[nH]c3ccc(-c4c(F)cccc4F)cc23)n1 | full length recombinant Pim-1 protein (Homo sapiens) | 0.48 |
| c1cc(C2CC2)nc(-c2ccc3[nH]cc(-c4cncc(C5CC5)n4)c3c2)n1 | full length recombinant Pim-1 protein (Homo sapiens) | 2.10 |
| CNC(=O)c1ccc2[nH]nc(-c3cncc(N[C@@H]4CCCNC4)n3)c2c1 | full length recombinant Pim-1 protein (Homo sapiens) | 1.48 |
| OCCc1ccc2[nH]nc(-c3cncc(O[C@H]4CNCCC45CC5)n3)c2c1 [Example 270, hydrochloride] | full length recombinant Pim-1 protein (Homo sapiens) | 1.66 |
| CC1(Oc2cncc(-c3n[nH]c4ccc(-c5c(F)cccc5F)cc34)n2)CCCNC1 (stereo not drawn) | full length recombinant Pim-1 protein (Homo sapiens) | 1.18 |
| Cc1ccccc1-c1ccc2[nH]nc(-c3cncc(O[C@H]4CNCCC45CC5)n3)c2c1 | full length recombinant Pim-1 protein (Homo sapiens) | 0.95 |
| CC(C)Oc1cccc(-c2ccc3[nH]cc(-c4cncc(O[C@@H]5CCCNC5)n4)c3c2)c1 | full length recombinant Pim-1 protein (Homo sapiens) | 0.90 |
| NC1CCN(c2nc(O)cc(-c3n[nH]c4ccc(-c5c(F)cccc5F)cc34)n2)CC1 | full length recombinant Pim-1 protein (Homo sapiens) | 0.00 |
| CC(C)Nc1nnc(-c2c[nH]c3ccc(-c4cncc(OC(C)C)n4)cc23)o1 | full length recombinant Pim-1 protein (Homo sapiens) | 1.95 |
